Assay: self-splicing fitness, log relative to wild type (ln ratio); higher = more splicing; Tetrahymena group I intron in knt gene, E. coli kanamycin selection, DiMSum; sequences stand for … in CUCUCU…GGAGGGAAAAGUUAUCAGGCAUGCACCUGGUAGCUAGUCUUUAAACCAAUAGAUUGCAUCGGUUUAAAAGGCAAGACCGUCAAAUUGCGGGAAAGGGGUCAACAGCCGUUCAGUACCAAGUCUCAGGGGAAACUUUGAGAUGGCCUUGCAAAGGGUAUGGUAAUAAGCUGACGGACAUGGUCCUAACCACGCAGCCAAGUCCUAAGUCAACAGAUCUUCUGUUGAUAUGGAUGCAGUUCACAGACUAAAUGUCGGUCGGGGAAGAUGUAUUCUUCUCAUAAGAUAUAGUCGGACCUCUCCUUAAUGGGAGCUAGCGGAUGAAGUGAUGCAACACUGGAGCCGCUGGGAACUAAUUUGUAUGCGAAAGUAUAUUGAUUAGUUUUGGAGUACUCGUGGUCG;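 further: selection with 25 µg/mL kanamycin versus none on LB agar overnight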
Conditions: 37 °C
Value type: self-splicing fitness (ln)
Answers are plain numbers.

Illustrative cases are given below, each with its answer.
{"Sequence data": "AAUCAGCAAUAUUACGUGUA", "self-splicing fitness (ln)": 0.135}
{"Sequence data": "GCUAAGCAAUAUUACGGUCG", "self-splicing fitness (ln)": -1.34}
{"Sequence data": "ACCCAGCAAUAUUACGUGUC", "self-splicing fitness (ln)": -1.75}
{"Sequence data": "AUAAAGCAAUAUUACGAUUA", "self-splicing fitness (ln)": 0.683}
{"Sequence data": "GCGAAGCAAUAUUACGGUCG", "self-splicing fitness (ln)": -2.77}
{"Sequence data": "UAUAAGCAAUAUUACGAAGU", "self-splicing fitness (ln)": -2.71}
{"Sequence data": "AACCAGCAAUAUUACGACGC", "self-splicing fitness (ln)": -0.0547}
{"Sequence data": "AUCCAGCAAUAUUACGUCUU", "self-splicing fitness (ln)": 0.716}
{"Sequence data": "AUAGAGCAAUAUUACGUGGA", "self-splicing fitness (ln)": -3.39}
{"Sequence data": "AGAAAGCAAUAUUACGCACA", "self-splicing fitness (ln)": -0.236}

Batch of 7 sequences: report self-splicing fitness (ln) for each.
1. UGUAAGCAAUAUUACGAUGU
2. AACAAGCAAUAUUACGGAAC
3. AAGAAGCAAUAUUACGCUGC
4. GCCAAGCAAUAUUACGGUUG
5. GAAGAGCAAUAUUACGCUCG
6. AUGUAGCAAUAUUACGACUA
7. AUCAAGCAAUAUUACGGAGA

-1.93
-1.73
-1.75
-2.54
-1.37
-0.536
-2.81

Source of measurements: the supplement of paper PMC7877785
